Readings of EC50 (nM), plaque reduction, hPIV3 C243, LLC-MK2 cells for the listed binders
Substrate: F protein of hPIV Type 3 (hPIV3 C243) (human parainfluenza virus type 3, strain C243)
Assay: cell-based or functional assay
The response must be a number in nM with no trailing unit.

A selection of reference data follows.
GET /value?item= DEFDASISQVNEKINQSLEEIRKSDELLHNEAAAKK (modifications not checked) [Compound 28] &field=EC50 (nM), plaque reduction, hPIV3 C243, LLC-MK2 cells returns 54.4

Briefly, EC50 (nM), plaque reduction, hPIV3 C243, LLC-MK2 cells measured for YDELVFDASQVNEKINQSLEKIRKSDELLHNVEAAAKK (modifications not checked) [Compound 30] : 48.2

# EC50 (nM), plaque reduction, hPIV3 C243, LLC-MK2 cells of WDEFDASIEEVNRRIEESLRRIEESDRRLEEVEAAAKK (modifications not checked) [Compound 43] = 16.1

Next item in the queue.
get_value(item= WDEFDASISQVNEKINQSLEEIRKSDELLHNVNAGLGSGSGK (modifications not checked) [Compound 27] , readout=EC50 (nM), plaque reduction, hPIV3 C243, LLC-MK2 cells) returns 27.2

Source listed as patent US20260250325A1.
